B1: Chromodomain-helicase-DNA-binding protein 5, residues 411 to 463; numbered along this chain, Q8TDI0 (parent)
chain: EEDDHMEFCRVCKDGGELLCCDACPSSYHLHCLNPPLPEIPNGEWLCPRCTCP

Variants of: B1
MEASUREMENT_PROTOCOL: abundance fitness (aPCA) (normalised: wild type 0, dead -1); higher = more abundant; growth selection in yeast, the domain comes from the species named
MEASUREMENT_PARAMETERS: Homo sapiens
PROPERTY_MEASURED: abundance fitness
Form: value (number only, do not type unit).

Recorded abundance fitness, per entry:
L19G    -0.571
L19C    -0.317
Y28R    -0.527
E44T    0.02

INPUT: abundance fitness for `R49M` ?
OUTPUT: 0.017

INPUT: Could you do the same for `H31S` , please?
OUTPUT: -0.075

INPUT: Could you do the same for `P36E` , please?
OUTPUT: -0.194

INPUT: Could you do the same for `P48Y` , please?
OUTPUT: -0.149

INPUT: Could you do the same for `P41A` , please?
OUTPUT: -0.144
